ASSAY_DETAILS: Tmax in BALB/c mouse at 10 mg/kg, iv
Type: ADME, organism-based
CONDITION_PARAMETERS: in vivo
OBSERVED_PROPERTY: Tmax (min)
Answers are plain numbers, in min.

Data request: Using known records, supply Tmax for CC(C)c1nn(Cc2nnc(-c3ccc(C(F)(F)F)nc3Cl)o2)c(=O)c2cc3sc(Cl)cc3n12
Data returned: 4.8

###

ASSAY_DETAILS: Apparent clearance in BALB/c mouse at 10 mg/kg, po
Type: ADME, organism-based
CONDITION_PARAMETERS: in vivo
OBSERVED_PROPERTY: CL/F
The number alone won't do; follow it with the unit.

Data request: Using known records, supply CL/F for CC(C)c1nn(Cc2nnc(-c3ccc(C(F)(F)F)nc3Cl)o2)c(=O)c2cc3sc(Cl)cc3n12
Data returned: 144 mL/min/kg
